ASSAY_DETAILS: Kinetic inertness: acid-assisted dechelation in excess HCl
Assay type: physicochemical
TEST_CONDITIONS: Figure 2A; 1.0 M HCl, 80 °C
Exercise: for every item that follows, state its recorded half-life.
Output spec: scalar in days, unitless text.

State, in one line, measured half-life of O=C([O-])CN1CCN2CCN(CC(=O)[O-])CCN(CC1)Cc1cccc(n1)-c1cnnn1Cc1cc(-c3ccccc3)cc(n1)C2.[Er+3]
2470

State, in one line, measured half-life of O=C([O-])CN1CCN2CCN(CC(=O)[O-])CCN(CC1)Cc1cccc(n1)-c1cnnn1Cc1cc(-c3ccccc3)cc(n1)C2.[Sm+3]
0.0608

State, in one line, measured half-life of O=C([O-])CN1CCN2CCN(CC(=O)[O-])CCN(CC1)Cc1cccc(n1)-c1cnnn1Cc1cc(-c3ccccc3)cc(n1)C2.[Tb+3]
15.5

State, in one line, measured half-life of O=C([O-])CN1CCN2CCN(CC(=O)[O-])CCN(CC1)Cc1cccc(n1)-c1cnnn1Cc1cc(-c3ccccc3)cc(n1)C2.[Eu+3]
0.304

State, in one line, measured half-life of O=C([O-])CN1CCN2CCN(CC(=O)[O-])CCN(CC1)Cc1cccc(n1)-c1cnnn1Cc1cc(-c3ccccc3)cc(n1)C2.[Gd+3]
1.27

State, in one line, measured half-life of O=C([O-])CN1CCN2CCN(CC(=O)[O-])CCN(CC1)Cc1cccc(n1)-c1cnnn1Cc1cc(-c3ccccc3)cc(n1)C2.[Dy+3]
146

State, in one line, measured half-life of O=C([O-])CN1CCN2CCN(CC(=O)[O-])CCN(CC1)Cc1cccc(n1)-c1cnnn1Cc1cc(-c3ccccc3)cc(n1)C2.[Ho+3]
550

----------
ASSAY_DETAILS: Kinetic inertness: acid-assisted dechelation in excess HCl
Format: physicochemical
TEST_CONDITIONS: Figure 2A; 6.0 M HCl, 80 °C
REPORTED_PROPERTY: half-life, h

O=C([O-])CN1CCN2CCN(CC(=O)[O-])CCN(CC1)Cc1cccc(n1)-c1cnnn1Cc1cc(-c3ccccc3)cc(n1)C2.[Pr+3] [Ph{Pr}] : too unstable
O=C([O-])CN1CCN2CCN(CC(=O)[O-])CCN(CC1)Cc1cccc(n1)-c1cnnn1Cc1cc(-c3ccccc3)cc(n1)C2.[Ce+3] [Ph{Ce}] : too unstable
O=C([O-])CN1CCN2CCN(CC(=O)[O-])CCN(CC1)Cc1cccc(n1)-c1cnnn1Cc1cc(-c3ccccc3)cc(n1)C2.[La+3] [Ph{La}] : too unstable

----------
ASSAY_DETAILS: Kinetic inertness: acid-assisted dechelation in excess HCl
Format: physicochemical
TEST_CONDITIONS: dechelation half-life; 0.5 mM chelate in 1.0 M HCl, 80 °C; HPLC-UV after 1 h, 1 day, 1 week, 1 month; exponential decay fit; ± error of the fit
REPORTED_PROPERTY: t½ (1.0 M HCl, 80 °C)

Solved cases (5 shown):
O=C([O-])CN1CCN2CCN(CC(=O)[O-])CCN(CC1)Cc1cccc(n1)-c1cnnn1Cc1cc(-c3ccccc3)cc(n1)C2.[Nd+3] : too unstable
O=C([O-])CN1CCN2CCN(CC(=O)[O-])CCN(CC1)Cc1cccc(n1)-c1cnnn1Cc1cc(-c3ccccc3)cc(n1)C2.[Yb+3] : too stable
O=C([O-])CN1CCN2CCN(CC(=O)[O-])CCN(CC1)Cc1cccc(n1)-c1cnnn1Cc1cc(-c3ccccc3)cc(n1)C2.[Tm+3] : too stable
O=C([O-])CN1CCN(CC(=O)[O-])CCN(CC(=O)[O-])C(Cc2ccc([N+](=O)[O-])cc2)CN(CC(=O)[O-])CC1.[La+3] (centres unmarked) [[La(NO2BnDOTA)], reference compound] : too unstable
O=C([O-])CN1CCN2CCN(CC(=O)[O-])CCN(CC1)Cc1cccc(n1)-c1cn(nn1)Cc1cc(-c3ccccc3)cc(n1)C2.[Lu+3] [1,4-cz-[Lu(PhL1)]] : too unstable

State, in one line, measured t½ (1.0 M HCl, 80 °C) of O=C([O-])CN1CCN2CCN(CC(=O)[O-])CCN(CC1)Cc1cccc(n1)-c1cnnn1Cc1cc(-c3ccccc3)cc(n1)C2.[Ce+3]
too unstable

State, in one line, measured t½ (1.0 M HCl, 80 °C) of O=C([O-])CN1CCN2CCN(CC(=O)[O-])CCN(CC1)Cc1cccc(n1)-c1cn(nn1)Cc1cc(-c3ccccc3)cc(n1)C2.[Gd+3] [1,4-cz-[Gd(PhL1)]]
too unstable

----------
ASSAY_DETAILS: Kinetic inertness: acid-assisted dechelation in excess HCl
Assay type: physicochemical
TEST_CONDITIONS: dechelation half-life; 0.5 mM chelate in 1.0 M HCl, 80 °C; HPLC-UV after 1 h, 1 day, 1 week, 1 month; exponential decay fit; ± error of the fit
REPORTED_PROPERTY: t½ (1.0 M HCl, 80 °C)

O=C([O-])CN1CCN2CCN(CC(=O)[O-])CCN(CC1)Cc1cccc(n1)-c1cnnn1Cc1cc(-c3ccccc3)cc(n1)C2.[Pr+3] : too unstable
O=C([O-])CN1CCN2CCN(CC(=O)[O-])CCN(CC1)Cc1cccc(n1)-c1cnnn1Cc1cc(-c3ccccc3)cc(n1)C2.[Ca+2] : too unstable
O=C([O-])CN1CCN2CCN(CC(=O)[O-])CCN(CC1)Cc1cccc(n1)-c1cnnn1Cc1cc(-c3ccccc3)cc(n1)C2.[La+3] : too unstable
